System: OVCAR-4 ovarian
Assay: NCI tumour cell line growth inhibition, 48 h
Here, each record is paired with measured TGI data.
// units = µM; emit number, no label

Below, 5 molecules whose answers are already recorded.
>>> value_reported("CC1OC(OC2C(OC(=O)[C@]34CCC(C)(C)C[C@H]3C3=CC[C@@H]5[C@@]6(C)CC[C@H](OC7OC(C(=O)O)C(O)C(O)C7O)C(C)(C)[C@@H]6CC[C@@]5(C)[C@]3(C)C[C@H]4O)OCC(O)C2O)C(O)C(O)C1OC1OCC(O)C(O)C1O (stereo partly drawn)")
31.7
>>> value_reported("CC1=C(C#N)C(=C(C#N)C#N)OC1(C)Cc1ccccc1 (stereo not drawn)")
60.3
>>> value_reported("CCc1ccc(Oc2c(-c3ccc(OCc4ccc(Cl)cc4)cc3O)n[nH]c2C(F)(F)F)cc1")
3.31
>>> value_reported("Cc1ccc(O)c(Cc2nc3ccccc3nc2-c2cccc(Cl)c2)c1")
65.8
>>> value_reported("O=c1oc2ccc3ccccc3c2cc1-c1nnc(Nc2ccccc2)s1")
38.8

Kindly consider the entry below.
Give OVCAR-4 ovarian TGI for the following molecule: `O=C1/C(=C/c2cccc(Cl)c2)CCCc2ccccc21`
31.4
